Test system: Thalamus
procedure.details: Drug uptake in anesthetized cynomolgus monkey brain thalamus after 12.5 mins postinjection
Type: ADME, organism-based, Macaca fascicularis
Set-up: unit not given here
experimental.parameters: in vivo
Drug uptake vs 4: at or above is Criterion met, below is Criterion not met.

Could you tell me if the measured Drug uptake of O=C(OCC[18F])C1C2CCC(CC1c1ccc(/C=C\I)cc1)N2 (stereo not given) reaches 4 or more? Criterion not met

Could you tell me if the measured Drug uptake of O=C(OCCC[18F])C1C2CCC(CC1c1cccc(/C=C\Br)c1)N2 (stereo not given) reaches 4 or more? Criterion met

Could you tell me if the measured Drug uptake of O=C(OCC[18F])C1C2CCC(CC1c1cccc(/C=C\I)c1)N2 (stereo not given) reaches 4 or more? Criterion not met

Could you tell me if the measured Drug uptake of O=C(OCC[18F])C1C2CCC(CC1c1cccc(/C=C\Br)c1)N2 (stereo not given) reaches 4 or more? Criterion not met

Could you tell me if the measured Drug uptake of O=C(OCCC[18F])C1C2CCC(CC1c1cccc(/C=C\I)c1)N2 (stereo not given) reaches 4 or more? Criterion not met

---

procedure.details: Drug uptake in anesthetized cynomolgus monkey brain frontal lobe after 225 mins postinjection
Type: ADME, organism-based, Macaca fascicularis
experimental.parameters: in vivo, 3.75 h
property.name: Drug uptake
Format: numeric value only, no unit, no commentary.

State the recorded Drug uptake for this entry: O=C(OCC[18F])C1C2CCC(CC1c1cccc(/C=C\I)c1)N2 (stereo not given) 1.45

State the recorded Drug uptake for this entry: O=C(OCCC[18F])C1C2CCC(CC1c1cccc(/C=C\I)c1)N2 (stereo not given) 1.82

State the recorded Drug uptake for this entry: O=C(OCC[18F])C1C2CCC(CC1c1cccc(/C=C\Br)c1)N2 (stereo not given) 1.88

State the recorded Drug uptake for this entry: O=C(OCC[18F])C1C2CCC(CC1c1ccc(/C=C\I)cc1)N2 (stereo not given) 1.56

State the recorded Drug uptake for this entry: O=C(OCCC[18F])C1C2CCC(CC1c1cccc(/C=C\Br)c1)N2 (stereo not given) 1.97

---

Answer each item with its documented Drug uptake.
System: Midbrain
procedure.details: Drug uptake in anesthetized cynomolgus monkey brain midbrain after 22.5 mins postinjection
Type: ADME, organism-based, Macaca fascicularis
Set-up: unit not given here
experimental.parameters: in vivo, 0.375 h
Format: numeric value only, no unit, no commentary.

State the recorded Drug uptake for this entry: O=C(OCC[18F])C1C2CCC(CC1c1ccc(/C=C\I)cc1)N2 (stereo not given) 3.04

State the recorded Drug uptake for this entry: O=C(OCCC[18F])C1C2CCC(CC1c1cccc(/C=C\Br)c1)N2 (stereo not given) 5.88

State the recorded Drug uptake for this entry: O=C(OCCC[18F])C1C2CCC(CC1c1cccc(/C=C\I)c1)N2 (stereo not given) 4.55

State the recorded Drug uptake for this entry: O=C(OCC[18F])C1C2CCC(CC1c1cccc(/C=C\Br)c1)N2 (stereo not given) 4.28

State the recorded Drug uptake for this entry: O=C(OCC[18F])C1C2CCC(CC1c1cccc(/C=C\I)c1)N2 (stereo not given) 4.56

---

Answer each item with its documented Ratio.
procedure.details: Ratio of drug uptake in medulla to cerebellum in anesthetized cynomolgus monkey after 12.5 mins postinjection
Assay type: ADME, organism-based, Macaca fascicularis
experimental.parameters: in vivo
Format: numeric value only, no unit, no commentary.

State the recorded Ratio for this entry: O=C(OCC[18F])C1C2CCC(CC1c1cccc(/C=C\Br)c1)N2 (centres undefined) 1.2

State the recorded Ratio for this entry: O=C(OCCC[18F])C1C2CCC(CC1c1cccc(/C=C\I)c1)N2 (centres undefined) 1

State the recorded Ratio for this entry: O=C(OCC[18F])C1C2CCC(CC1c1cccc(/C=C\I)c1)N2 (centres undefined) 0.9

State the recorded Ratio for this entry: O=C(OCCC[18F])C1C2CCC(CC1c1cccc(/C=C\Br)c1)N2 (centres undefined) 1
